target: Cbl-b (Homo sapiens, UniProt Q13191); construct: Cbl-b-HiBit KI Jurkat Cells were purchased from Promega; host or cells: Cbl-b-HiBiT knock-in Jurkat cells; assay: Cbl-b Degradation Method A (FACS, anti-Cbl-b antibody staining); assay type: cell-based; conditions: Cbl-b-HiBit KI Jurkat Cells, incubated at least 20 hours; half maximal degradation; read-out: Cbl-b Degredation Method A IC50
Sequence (Q13191 whole entry): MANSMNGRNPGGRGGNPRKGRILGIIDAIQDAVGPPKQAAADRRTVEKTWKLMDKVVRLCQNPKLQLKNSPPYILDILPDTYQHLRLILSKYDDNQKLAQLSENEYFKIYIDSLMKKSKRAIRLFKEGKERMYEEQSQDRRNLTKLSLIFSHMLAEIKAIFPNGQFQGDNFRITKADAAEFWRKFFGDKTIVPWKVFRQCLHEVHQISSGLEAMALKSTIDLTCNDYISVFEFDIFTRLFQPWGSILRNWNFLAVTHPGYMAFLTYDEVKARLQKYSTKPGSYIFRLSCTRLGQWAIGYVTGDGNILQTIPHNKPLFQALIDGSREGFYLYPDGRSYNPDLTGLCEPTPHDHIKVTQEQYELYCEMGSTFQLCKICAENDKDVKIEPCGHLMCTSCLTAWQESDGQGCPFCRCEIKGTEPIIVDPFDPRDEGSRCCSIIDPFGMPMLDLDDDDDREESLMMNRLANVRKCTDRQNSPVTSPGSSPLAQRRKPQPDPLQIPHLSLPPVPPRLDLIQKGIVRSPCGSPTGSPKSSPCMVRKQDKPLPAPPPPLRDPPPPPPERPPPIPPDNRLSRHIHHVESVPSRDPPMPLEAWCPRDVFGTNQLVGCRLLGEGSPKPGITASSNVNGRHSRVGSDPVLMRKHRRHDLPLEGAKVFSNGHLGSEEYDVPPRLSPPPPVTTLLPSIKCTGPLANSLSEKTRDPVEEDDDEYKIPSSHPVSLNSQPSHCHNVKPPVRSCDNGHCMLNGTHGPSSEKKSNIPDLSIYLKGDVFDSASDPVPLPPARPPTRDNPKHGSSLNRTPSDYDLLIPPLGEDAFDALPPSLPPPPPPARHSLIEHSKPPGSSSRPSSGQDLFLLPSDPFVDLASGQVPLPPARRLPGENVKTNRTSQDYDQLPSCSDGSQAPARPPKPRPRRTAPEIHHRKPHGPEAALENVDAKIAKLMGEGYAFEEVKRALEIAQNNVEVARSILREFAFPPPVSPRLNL
quantity: DC50

Consider the worked cases shown below.
{"compound": "Cc1cc(N2CCC(CN3CCC4(CC3)CN(c3cc5c(c(C(F)(F)F)c3)CN(c3cccc([C@]6(Cc7nncn7C)C[C@@H](C#N)C6)c3)C5=O)C4)CC2)c(F)c2c1C(=O)N(C1CCC(=O)NC1=O)C2 (stereo partly drawn)", "DC50": "5 to 50 nM"}
{"compound": "Cn1cnnc1CC1(c2cccc(N3Cc4c(cc(CN5CCC[C@H](CN6CCN(C[C@H]7CC[C@@H](OC8CCN(c9ccc%10c(c9F)CN(C9CCC(=O)NC9=O)C%10=O)CC8)CC7)CC6)C5)cc4C(F)(F)F)C3=O)c2)CC1 (stereo partly drawn)", "DC50": "< 5 nM"}
{"compound": "Cn1cnnc1CC1(c2cccc(N3Cc4c(cc(CN5CC[C@H](CN6CCN(C[C@H]7CC[C@H](OC8CCN(c9ccc%10c(c9F)CN(C9CCC(=O)NC9=O)C%10=O)CC8)CC7)CC6)C5)cc4C(F)(F)F)C3=O)c2)COC1 (stereo partly drawn)", "DC50": "< 5 nM"}
{"compound": "Cn1cnnc1CC1(c2cccc(N3Cc4c(cc(CN5CCC(COCCOCCOc6cccc7c6C(=O)N(C6CCC(=O)NC6=O)C7=O)CC5)cc4C(F)(F)F)C3=O)c2)COC1 (stereo not drawn)", "DC50": "> 500 nM"}
{"compound": "CC1CN(C[C@H]2CC[C@H](OC3CCN(c4ccc5c(n4)C(C)N(C4CCC(=O)NC4=O)C5=O)CC3)CC2)CCN1Cc1cc2c(c(C(F)(F)F)c1)CN(c1cccc([C@]3(Cc4nncn4C)C[C@@H](C#N)C3)c1)C2=O (stereo partly drawn)", "DC50": "5 to 50 nM"}
{"compound": "Cn1cnnc1CC1(c2cccc(N3Cc4c(cc(CN5CCC(CC6CCN(c7ccc8c(c7)C(=O)N(C7CCC(=O)NC7=O)C8=O)CC6)C5)cc4C(F)(F)F)C3=O)c2)COC1 (stereo not drawn)", "DC50": "> 500 nM"}

Q: Which DC50 value is on record for Cn1cnnc1CC1(c2cccc(N3Cc4c(cc(CN5CCC(COCCOCCOc6ccc7c(c6)C(=O)N(C6CCC(=O)NC6=O)C7=O)CC5)cc4C(F)(F)F)C3=O)c2)COC1 (stereo not drawn) ?
Ans: > 500 nM

Q: Try the compound Cn1cnnc1CC1(c2cccc(N3Cc4c(cc(N5CC6(CN(c7ccc8c(c7)C(=O)N(C7CCC(=O)NC7=O)C8=O)C6)C5)cc4C(F)(F)F)C3=O)c2)COC1 (stereo not drawn)
Ans: 50 to 500 nM

Q: Try the compound Cn1cnnc1C[C@]1(c2cccc(N3Cc4c(cc(N5CC6(CCN(CC7CCN(c8ccc9c(c8)C(=O)N(C8CCC(=O)NC8=O)C9=O)CC7)CC6)C5)cc4C(F)(F)F)C3=O)c2)C[C@H](C#N)C1 (stereo partly drawn)
Ans: 5 to 50 nM

Q: Try the compound CC1c2nc(N3CCC(O[C@H]4CC[C@H](CN5CCN(Cc6cc7c(c(C(F)(F)F)c6)CN(c6cccc([C@]8(Cc9nncn9C)C[C@@H](C#N)C8)c6)C7=O)CC5)CC4)CC3)ccc2C(=O)N1C1CCC(=O)NC1=O (stereo partly drawn)
Ans: < 5 nM

Q: Try the compound Cn1cnnc1CC1(c2cccc(N3Cc4c(cc(N5CC(CC6CCN(c7ccc8c(c7)C(=O)N(C7CCC(=O)NC7=O)C8=O)CC6)C5)cc4C(F)(F)F)C3=O)c2)COC1 (stereo not drawn)
Ans: 5 to 50 nM

Q: Try the compound CC(C)n1c(=O)n(C2CCC(=O)NC2=O)c2cccc(N3CCC(O[C@H]4CC[C@H](CN5CCN(Cc6cc7c(c(C(F)(F)F)c6)CN(c6cccc([C@]8(Cc9nncn9C)C[C@H](C#N)C8)c6)C7=O)CC[C@@H]5C)CC4)CC3)c21 (stereo partly drawn)
Ans: 50 to 500 nM

Q: Try the compound COc1c(N2CCC(O[C@H]3CC[C@H](CN4CCC5(CC4)CN(c4cc6c(c(C(F)(F)F)c4)CN(c4cccc([C@]7(Cc8nncn8C)C[C@@H](C#N)C7)c4)C6=O)C5)CC3)CC2)ccc2c1CN(C1CCC(=O)NC1=O)C2=O (stereo partly drawn)
Ans: 5 to 50 nM

Q: Try the compound CC(C)n1c(=O)n(C2CCC(=O)NC2=O)c2ccc(N3CCC(O[C@H]4CC[C@H](CN5CCN(Cc6cc7c(c(C(F)(F)F)c6)CN(c6cccc(C8(Cc9nncn9C)CC(C#N)C8)c6)C7=O)C(C)(C)C5)CC4)CC3)c(F)c21 (stereo partly drawn)
Ans: 50 to 500 nM

Q: Try the compound Cn1cnnc1C1(c2cccc(N3Cc4c(cc(CN5CCC[C@H](CN6CCN(C[C@H]7CC[C@@H](OC8CCN(c9ccc%10c(c9F)CN(C9CCC(=O)NC9=O)C%10=O)CC8)CC7)CC6)C5)cc4C(F)(F)F)C3=O)c2)COC1 (stereo partly drawn)
Ans: 5 to 50 nM

Q: Try the compound Cn1cnnc1CC1(c2cccc(N3Cc4c(cc(N5CCC(CC6CN(c7ccc8c(c7)C(=O)N(C7CCC(=O)NC7=O)C8=O)C6)CC5)cc4C(F)(F)F)C3=O)c2)COC1 (stereo not drawn)
Ans: 50 to 500 nM

Q: Try the compound Cn1cnnc1CC1(c2cccc(N3Cc4c(cc(N5CCC6(C5)CN(c5ccc7c(c5)C(=O)N(C5CCC(=O)NC5=O)C7=O)C6)cc4C(F)(F)F)C3=O)c2)COC1 (stereo not drawn)
Ans: > 500 nM

Q: Try the compound Cn1cnnc1CC1(c2cccc(N3Cc4c(cc(N5CCC(C6CCN(c7ccc8c(c7)C(=O)N(C7CCC(=O)NC7=O)C8=O)CC6)CC5)cc4C(F)(F)F)C3=O)c2)COC1 (stereo not drawn)
Ans: > 500 nM
